target: PARP1 L713F-nLuc biosensor (HCT116); assay: PARP1 L713F-nLuc/akaLuc ratio relative to DMSO control (biosensor stabilization) (fold change); higher = more PARP1 biosensor stabilization (target engagement / stabilizer), active = hit call of the paper; settings: stock concentration (mM; final µM = stock mM x 1): 10; 24 h
Counter-ions that a name gives are not always drawn.
Please go through the items and note down their PARP1 L713F-nLuc/akaLuc ratio.
Keep the answer to the number alone.

Field PARP1 L713F-nLuc/akaLuc ratio (entry N#Cc1c(Oc2ccc(F)c(NC(=O)Cc3cccc(C(F)(F)F)c3)c2)ccc2nc(NC(=O)C3CC3)sc12 ) reads 0.538

Entry CC(C)[C@H]1C(=O)N[C@@H](CCCN=C(N)N)C(=O)NCC(=O)N[C@@H](CC(=O)O)C(=O)N[C@H](Cc2ccccc2)C(=O)N1C , PARP1 L713F-nLuc/akaLuc ratio reported as 0.738

// PARP1 L713F-nLuc/akaLuc ratio lookup, molecule = Cn1c(=O)c2c(ncn2CC(=O)O)n(C)c1=O , result: 0.921

According to the records, this molecule Cc1cnc(Nc2ccc(OCCN3CCCC3)cc2)nc1Nc1cccc(S(=O)(=O)NC(C)(C)C)c1 [Fedratinib] displays PARP1 L713F-nLuc/akaLuc ratio of 0.694

Per the records, this molecule ( O=C(CNC(=O)[C@H](COP(=O)(O)O)NC(=O)CCc1c[nH]c2ccccc12)NCCCCc1ccccc1 ) has PARP1 L713F-nLuc/akaLuc ratio equal to 1.08

Documented PARP1 L713F-nLuc/akaLuc ratio of CCCCNc1ncc(C(=O)NCc2ccc(-n3ccnc3)cc2)c(NC2CCC(O)CC2)n1 (stereo unspecified) : 0.954

Please fill in: PARP1 L713F-nLuc/akaLuc ratio reported for O=C(O)Cn1nnc(-c2ccc(CN(CCCCOc3ccc(CN4CCCC4)cc3)CCc3ccccc3)cc2)n1 [TH1834 (dihydrochloride)] = 1.29

// PARP1 L713F-nLuc/akaLuc ratio value for CS(=O)(=O)NCCC1CCN(c2ncnc3cc(C(N)=O)sc23)CC1 : 0.762

Cc1ccc(C(=O)Nc2ccc(S(=O)(=O)O)c3cc(S(=O)(=O)O)cc(S(=O)(=O)O)c23)cc1NC(=O)c1cccc(NC(=O)Nc2cccc(C(=O)Nc3cc(C(=O)Nc4ccc(S(=O)(=O)O)c5cc(S(=O)(=O)O)cc(S(=O)(=O)O)c45)ccc3C)c2)c1 [Suramin (sodium salt)] yielded PARP1 L713F-nLuc/akaLuc ratio of 0.738

Lookup result for COc1cc2ccc(=O)oc2cc1O[C@@H]1O[C@H](CO)[C@@H](O)[C@H](O)[C@H]1O ; measured PARP1 L713F-nLuc/akaLuc ratio: 1.04

Value of measured PARP1 L713F-nLuc/akaLuc ratio for the entry CO[C@H]1C[C@@H]2CC[C@@H](C)[C@@](O)(O2)C(=O)C(=O)N2CCCC[C@H]2C(=O)O[C@H]([C@H](C)C[C@@H]2CC[C@@H](O)[C@H](OC)C2)CC(=O)[C@H](C)/C=C(\C)[C@@H](O)[C@@H](OC)C(=O)[C@H](C)C[C@H](C)/C=C/C=C/C=C/1C [Rapamycin (Sirolimus)] : 0.6

Quick note, PARP1 L713F-nLuc/akaLuc ratio for Cn1ncc(Cl)c1-c1cc(C(=O)N[C@H](CN)Cc2cccc(F)c2)sc1Cl [Afuresertib] landed at 1.63

Entry CC(C)n1cnc2c(NCCc3ccc(O)cc3)nc(-c3csc4ccccc34)nc21 [StemRegenin 1 (SR1)] ; PARP1 L713F-nLuc/akaLuc ratio = 0.788

Lab note: measured PARP1 L713F-nLuc/akaLuc ratio of CS(=O)(=O)c1ccc(C(=O)Nc2ccc(Cl)c(-c3ccccn3)c2)c(Cl)c1 was 1.11

Item: CNC(=O)c1ccc(C)c(-n2c(C)cc(OCc3ccc(F)cc3F)c(Br)c2=O)c1 | PARP1 L713F-nLuc/akaLuc ratio: 0.728

Form: molecule = O=C1CCc2ccccc2O1 [Dihydrocoumarin] ; PARP1 L713F-nLuc/akaLuc ratio = 0.769

PARP1 L713F-nLuc/akaLuc ratio reading for C=C1CCC[C@]2(C)C=C3OC(=O)C(C)=C3C[C@@H]12 [Atractylenolide I] : 0.934

PARP1 L713F-nLuc/akaLuc ratio measured on Nc1[nH]c(=O)nc2c1ncn2[C@@H]1O[C@H](CO)[C@@H](O)[C@H]1O [Crotonoside] = 0.835

Per the records, this molecule ( C[C@H](Nc1cc(-c2cnn(C)c2)cc(Nc2cnccn2)n1)c1ccc(F)cc1 [Ilginatinib (maleate)] ) has PARP1 L713F-nLuc/akaLuc ratio equal to 0.614

Notebook: COc1cc(CCc2cc(NC(=O)c3ccc(N4CC(C)NC(C)C4)cc3)n[nH]2)cc(OC)c1 (stereo unspecified) , PARP1 L713F-nLuc/akaLuc ratio read as 0.745

Form: molecule = NC(=O)NO [Hydroxyurea] ; PARP1 L713F-nLuc/akaLuc ratio = 0.953

Lab note: measured PARP1 L713F-nLuc/akaLuc ratio of CC1(C)C(=O)NC2=C1C(=O)C(=O)c1ccccc12 was 0.888

Record C[C@@H](COCCC(=O)N1CCN(c2ncc(C(F)(F)F)cn2)CC1)Nc1cn[nH]c(=O)c1C(F)(F)F . Reported PARP1 L713F-nLuc/akaLuc ratio: 2.09

Per the record, CN(C)C(=N)NC(=N)N [Metformin HCl] has PARP1 L713F-nLuc/akaLuc ratio of 0.701

Form field PARP1 L713F-nLuc/akaLuc ratio, entry Cc1[nH]n(-c2ccccc2)c(=O)c1N=Nc1ccc(N2CCOCC2)cc1 : 1.04

// PARP1 L713F-nLuc/akaLuc ratio value for COc1cc2c(NC3CCN(C)CC3)nc(N3CCCN(C)CC3)nc2cc1OCCCN(C)C : 0.782

Record CO[C@H]1C[C@@H]2CC[C@@H](C)[C@@](O)(O2)C(=O)C(=O)N2CCCC[C@H]2C(=O)O[C@H]([C@H](C)C[C@@H]2CC[C@@H](OP(C)(C)=O)[C@H](OC)C2)CC(=O)[C@H](C)/C=C(\C)[C@@H](O)[C@@H](OC)C(=O)[C@H](C)C[C@H](C)/C=C/C=C/C=C/1C . Reported PARP1 L713F-nLuc/akaLuc ratio: 1.7

What the record says about C=C(C)[C@@H]1CCC(C)=C[C@H]1C1=C(O)C(=O)C(CCCCC)=C(NCc2ccccc2)C1=O : PARP1 L713F-nLuc/akaLuc ratio is 1.39

// recorded PARP1 L713F-nLuc/akaLuc ratio for O=C(Nc1cccc(Cl)c1)Nc1ncc(CCNc2ncnc3ccsc23)s1 [SNS-314 (mesylate)] : 1.11

// sample CC1(C)C=Cc2cc(CCn3c4ccccc4c4ccccc43)cc(C=O)c2O1 , its PARP1 L713F-nLuc/akaLuc ratio was 1.78

Measured PARP1 L713F-nLuc/akaLuc ratio, CCN(c1cc(-c2ccc(CN3CCOCC3)cc2)cc(C(=O)NCc2c(C)cc(C)[nH]c2=O)c1C)C1CCOCC1 [Tazemetostat (hydrobromide)] : 0.726

Data provenance is the supplement of paper PMC11624193.
